system: COLO 205 colon; test: NCI tumour cell line growth inhibition, 48 h
Where a SMILES comes first, the peptide text is derived from it. Bridges are numbered along the chain shown (N, C = ends).
Readout type: TGI (µM)
Lab book: enter the figure in µM, no units written.

So what TGI did Cn1c2ccccc2c2c(=O)n(CCCC(=O)NCCc3cnc[nH]3)c3c(-c4ccccc4)nnn3c21 get with COLO 205 colon?
19.6

Item C[N+]1(C)C/C(=C\C=C\c2ccccc2)C(=O)/C(=C/C=C/c2ccccc2)C1 with COLO 205 colon - TGI?
11.8

Item CCC(C)C1NC(=O)C(CC(C)C)NC(=O)C(C(C)C)NC(=O)C2CSSCC(NC1=O)C(=O)N2 (centres undefined) (cyclo(CCVLI); disulfide 1-2; configuration not given here) with COLO 205 colon - TGI?
0.223

Requested read-out TGI, target or system COLO 205 colon, entry COc1cc2c(c(OC)c1)C(=O)C(=O)C(CC1(C)OCCCO1)=C2
9.58

Report TGI for COc1ccc2[nH]cc(C3(c4c[nH]c5ccc(OC)cc45)C(=O)Nc4ccc(Cl)cc43)c2c1 tested on COLO 205 colon.
3.53

Hello, I am looking for reported TGI with COLO 205 colon for CC(C)c1ccc(C(c2c(O)c3ccccc3oc2=O)c2c(O)c3ccccc3oc2=O)cc1 . Could you help?
34.2

TGI of CCOC1Oc2ccccc2C(=O)/C1=C\Nc1ccc(C(=O)O)c(O)c1 (centres undefined) on COLO 205 colon?
56.5

Can you look up TGI on COLO 205 colon for CC(C)C1CCC(=O)CC1CCCCC1CC(=O)CC1O[Si](C)(C)C(C)(C)C (centres undefined) ?
21.5

Any idea what TGI came out for CCC/C=C/C=C\C(=O)O[C@@H]1[C@@H](C)[C@]2(O)[C@@H]3C=C(C)C(=O)[C@H]3CC(COC(C)=O)=C[C@H]2[C@@H]2C(C)(C)[C@]12OC(C)=O on COLO 205 colon?
22.5

Give COLO 205 colon TGI for CCN(CC)CCC(=O)Nc1ccc2sc3ccccc3c(=O)c2n1
29.1
